Hello, the source for this data is patent US20080032921A1, in case you need it.

target: HLA-DR DRB1*1302 (human)
test.protocol: competition with 125I-labelled peptide for purified HLA-DR
value.type: IC50 (nM)
Use nM as the unit, but write only the number.

I am curious: what IC50 value has been reported for RREVHIYYLEKANKI (modifications not checked) [Flu.PA.127] ?
150
